assay: intrinsic clearance in human hepatic microsomes fortified with NADPH; format: in vitro ADME; conditions: human, microsomes
quantity.measured: CLint scaled (mL/min/kg)
Numbers only; they are read as mL/min/kg.

CLint scaled recorded for this compound, [2H]C([2H])([2H])Oc1ccc([C@@]23c4ccccc4C(=O)N2CCN3C(=O)c2cc(F)c(F)c(F)c2)cc1C , is 72.9
